# Subject Of Test: T1, 细胞表面CTLA-4抗原 (CTLA-4 on cells) (UniProt P16410 36-223, limits assumed)
# T1 construct: whole, on cells; Also used as the target of the mixed lymphocyte reaction rows, where CTLA-4 stands on primary CD4+ T cells; also called 细胞表达的CTLA-4抗原; 过表达CTLA-4抗原的CHO细胞
# T1 sequence (looked up): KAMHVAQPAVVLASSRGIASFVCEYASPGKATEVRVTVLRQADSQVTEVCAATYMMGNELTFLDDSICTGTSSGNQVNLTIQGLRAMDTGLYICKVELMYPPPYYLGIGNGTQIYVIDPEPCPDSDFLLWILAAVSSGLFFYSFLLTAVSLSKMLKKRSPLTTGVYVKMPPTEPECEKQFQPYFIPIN
# Experimental Details: flow cytometry on CHO cells over-expressing CTLA-4, Alexa488 anti-human IgG Fc
So basically, if EC50 comes in under 7 ng/mL it's yes (1), and if it's 7 ng/mL or more it's no (0).

Task: Quick check: does 全抗N-4 (antibody, human IgG1, kappa, V domains shown, also called 抗CTLA-4全抗体N-4) VH: QVQLVESGGGVVQPGRSLRLSCAASGFTFSAFYNPWVRQAPGKGLEWVTFISYDGVYFHFGDSVKGRFTISRDNSKNTLYLQMNSLRAEDTAIYYCARRYRWWGKAMDYWGQGTLVTVSS VL: DIVMTQSPLSLPVTPGEPASISCKSSQSVIDSKGYTYLGWYLQKPGQSPQLLIYLGTQKSSGVPDRFSGSGSGTDFTLKISRVEAEDVGVYYCLQRGHIPITFGQGTKLEIKR have EC50 under 7 ng/mL?
Output: no (0)

Task: Quick check: does 全抗N-7 (antibody, human IgG1, kappa, V domains shown, also called 抗CTLA-4全抗体N-7) VH: QVQLVESGGGVVQPGRSLRLSCAASGFTFSGIYCNWVRQAPGKGLEWVTFISYDSILNVIADSVKGRFTISRDNSKNTLYLQMNSLRAEDTAIYYCARRYRWWGKAMDYWGQGTLVTVSS VL: DIVMTQSPLSLPVTPGEPASISCRSSQTVFDSHGQTYLQWYLQKPGQSPQLLIYGASRQVSGVPDRFSGSGSGTDFTLKISRVEAEDVGVYYCMQVWHLPITFGQGTKLEIKR have EC50 under 7 ng/mL?
Output: no (0)

Task: Quick check: does 全抗N-2 (antibody, human IgG1, kappa, V domains shown, also called 抗CTLA-4全抗体N-2) VH: QVQLVESGGGVVQPGRSLRLSCAASGFTFSSIFKRWVRQAPGKGLEWVTFISYDGLDHINGDSVKGRFTISRDNSKNTLYLQMNSLRAEDTAIYYCARRYRWWGKAMDYWGQGTLVTVSS VL: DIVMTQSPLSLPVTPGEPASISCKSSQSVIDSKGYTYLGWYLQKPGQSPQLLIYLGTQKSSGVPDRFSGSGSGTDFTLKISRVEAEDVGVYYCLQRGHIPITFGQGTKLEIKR have EC50 under 7 ng/mL?
Output: no (0)

Task: Quick check: does 全抗N-8 (antibody, human IgG1, kappa, V domains shown, also called 抗CTLA-4全抗体N-8) VH: QVQLVESGGGVVQPGRSLRLSCAASGFTFSGFSICWVRQAPGKGLEWVTFISYDGLLFLIADSVKGRFTISRDNSKNTLYLQMNSLRAEDTAIYYCARRYRWWGKAMDYWGQGTLVTVSS VL: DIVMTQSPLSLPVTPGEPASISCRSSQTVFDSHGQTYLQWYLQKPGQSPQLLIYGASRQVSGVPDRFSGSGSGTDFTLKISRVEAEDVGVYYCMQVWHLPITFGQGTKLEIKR have EC50 under 7 ng/mL?
Output: yes (1)

Task: Quick check: does 全抗N-5 (antibody, human IgG1, kappa, V domains shown, also called 抗CTLA-4全抗体N-5; N-5的全抗体) VH: QVQLVESGGGVVQPGRSLRLSCAASGFTFSGFFNRWVRQAPGKGLEWVTFISYDALKDFYADSVKGRFTISRDNSKNTLYLQMNSLRAEDTAIYYCARRYRWWGKAMDYWGPGTLVTVSS VL: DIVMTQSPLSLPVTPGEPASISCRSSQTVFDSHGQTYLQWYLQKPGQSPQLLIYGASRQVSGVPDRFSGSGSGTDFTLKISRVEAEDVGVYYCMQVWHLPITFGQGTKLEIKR have EC50 under 7 ng/mL?
Output: yes (1)

Task: Quick check: does 全抗N-3 (antibody, human IgG1, kappa, V domains shown, also called 抗CTLA-4全抗体N-3) VH: QVQLVESGGGVVQPGRSLRLSCAASGFTFSGIFSSWVRQAPGKGLEWVTFISYDSLKQKDGDSVKGRFTISRDNSKNTLYLQMNSLRAEDTAIYYCARRYRWWGKAMDYWGQGTLVTVSS VL: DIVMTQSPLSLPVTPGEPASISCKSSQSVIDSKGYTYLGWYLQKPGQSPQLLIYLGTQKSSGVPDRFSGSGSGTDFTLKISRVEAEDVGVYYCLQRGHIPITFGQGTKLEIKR have EC50 under 7 ng/mL?
Output: no (0)
